Assay: Olaparib sustained in cultured TNBC cells, LC-MS/MS (half-life)
Format: in vitro ADME, human
Settings: human, TNBC cells PDC No. 2, PDC No. 2, Control; read-out: Half life values of olaparib (t1/2) In cultured cells (converted)
parameterMeasured: half-life at 1 μmol/L (min)
The reply should contain only the number, in min.

Can you look up the measured half-life at 1 μmol/L of O=C(c1cc(Cc2n[nH]c(=O)c3ccccc23)ccc1F)N1CCN(C(=O)C2CC2)CC1 [olaparib] for me?
1300

* * *

Assay: Olaparib sustained in subcutaneous TNBC tumors after intratumoral injection, LC-MS/MS (half-life)
Type: in vivo, nude mice
Conditions: nude, mouse, subcutaneous tumor tissue, other: injected into the subcutaneous tumors (intratumoral), PDC No. 3, siFBI-1; read-out: Half life values of olaparib (t1/2) In subcutaneous tumors (converted)
parameterMeasured: half-life (h)
The reply should contain only the number, in h.

Can you look up the measured half-life of "O=C(c1cc(Cc2n[nH]c(=O)c3ccccc23)ccc1F)N1CCN(C(=O)C2CC2)CC1" for me?
62.7

* * *

Experiment: Olaparib sustained in cultured TNBC cells, LC-MS/MS (half-life)
Type: in vitro ADME, human
Settings: human, HCC-1937 TNBC cells, HCC-1937, siFBI-1 + miR-30c inhibitor; read-out: half life values of olaparib (t1/2) (converted)
Procedure: TNBC cells transfected with plasmids were used for the pharmacokinetic experiments to examine the amount of olaparib sustained in the cells. For the cell-based experiments, cells were treated with 1 μmol/L concentration of olaparib for 12 h[33]. Then, cells were harvested at indicated time-points. […] The sustaining rates of olaparib were calculated as (the amount of olaparib at each time)/(the amount of olaparib at 0-time) × 100%. […]
parameterMeasured: half-life at 1 μmol/L (h)
The reply should contain only the number, in h.

Can you look up the measured half-life at 1 μmol/L of O=C(c1cc(Cc2n[nH]c(=O)c3ccccc23)ccc1F)N1CCN(C(=O)C2CC2)CC1 [olaparib] for me?
18.6

* * *

Tested on: HCC-1937
Assay: Cell-survival SRB assay
Type: cell-based
Details: Homo sapiens, HCC1937, 48 h, HCC-1937, siFBI-1 + miR-30c inhibitor, 48 h; read-out: The IC50 values of olaparib
parameterMeasured: IC50
Numeric answer plus unit only.

Form field: IC50 recorded for "O=C(c1cc(Cc2n[nH]c(=O)c3ccccc23)ccc1F)N1CCN(C(=O)C2CC2)CC1" with HCC-1937 (enter value)
2210 nM

* * *

Test: Olaparib sustained in subcutaneous TNBC tumors after intratumoral injection, LC-MS/MS (half-life)
Assay type: in vivo, nude mice
Conditions: nude, mouse, subcutaneous tumor tissue, other: injected into the subcutaneous tumors (intratumoral), PDC No. 6, Control; read-out: Half life values of olaparib (t1/2) In subcutaneous tumors (converted)
parameterMeasured: half-life (h)
The reply should contain only the number, in h.

Can you look up the measured half-life of O=C(c1cc(Cc2n[nH]c(=O)c3ccccc23)ccc1F)N1CCN(C(=O)C2CC2)CC1 [olaparib] for me?
28.6

* * *

Assay: Olaparib sustained in cultured TNBC cells, LC-MS/MS (half-life)
Assay type: in vitro ADME, human
Settings: human, MDA-MB-436 TNBC cells, MDA-MB-436, FBI-1; read-out: half life values of olaparib (t1/2) (converted)
parameterMeasured: half-life at 1 μmol/L (min)
The reply should contain only the number, in min.

Can you look up the measured half-life at 1 μmol/L of "O=C(c1cc(Cc2n[nH]c(=O)c3ccccc23)ccc1F)N1CCN(C(=O)C2CC2)CC1" for me?
802

* * *

Assay: Olaparib sustained in cultured TNBC cells, LC-MS/MS (half-life)
Type: in vitro ADME, human
Settings: human, TNBC cells PDC No. 7, PDC No. 7, Control; read-out: Half life values of olaparib (t1/2) In cultured cells (converted)
parameterMeasured: half-life at 1 μmol/L (h)
The reply should contain only the number, in h.

Can you look up the measured half-life at 1 μmol/L of O=C(c1cc(Cc2n[nH]c(=O)c3ccccc23)ccc1F)N1CCN(C(=O)C2CC2)CC1 [olaparib] for me?
21

* * *

Assay: Olaparib sustained in cultured TNBC cells, LC-MS/MS (half-life)
Type: in vitro ADME, human
Settings: human, TNBC cells PDC No. 2, PDC No. 2, siFBI-1; read-out: Half life values of olaparib (t1/2) In cultured cells (converted)
parameterMeasured: half-life at 1 μmol/L (h)
The reply should contain only the number, in h.

Can you look up the measured half-life at 1 μmol/L of "O=C(c1cc(Cc2n[nH]c(=O)c3ccccc23)ccc1F)N1CCN(C(=O)C2CC2)CC1" for me?
60.8

* * *

Test: Olaparib sustained in cultured TNBC cells, LC-MS/MS (half-life)
Assay type: in vitro ADME, human
Settings: human, MDA-MB-436, FBI-1 + miR-30c; read-out: half life values of olaparib (t1/2) (converted)
parameterMeasured: half-life at 1 μmol/L (h)
The reply should contain only the number, in h.

Can you look up the measured half-life at 1 μmol/L of "O=C(c1cc(Cc2n[nH]c(=O)c3ccccc23)ccc1F)N1CCN(C(=O)C2CC2)CC1" for me?
44.1

* * *

Assay: Olaparib sustained in subcutaneous TNBC tumors after intratumoral injection, LC-MS/MS (half-life)
Assay type: in vivo, nude mice
Details: nude, mouse, subcutaneous tumor tissue, other: injected into the subcutaneous tumors (intratumoral), PDC No. 6, siFBI-1; read-out: Half life values of olaparib (t1/2) In subcutaneous tumors (converted)
parameterMeasured: half-life (h)
The reply should contain only the number, in h.

Can you look up the measured half-life of "O=C(c1cc(Cc2n[nH]c(=O)c3ccccc23)ccc1F)N1CCN(C(=O)C2CC2)CC1" for me?
43.6

* * *

Assay: Olaparib sustained in cultured TNBC cells, LC-MS/MS (half-life)
Format: in vitro ADME, human
Conditions: human, TNBC cells PDC No. 3, with ketoconazole (concentration not stated), PDC No. 3, FBI-1 + ketoconazole; read-out: Half-life values of olparib (t1/2) (converted)
parameterMeasured: half-life at 1 μmol/L (h)
The reply should contain only the number, in h.

Can you look up the measured half-life at 1 μmol/L of "O=C(c1cc(Cc2n[nH]c(=O)c3ccccc23)ccc1F)N1CCN(C(=O)C2CC2)CC1" for me?
26.2

* * *

Test: Olaparib sustained in cultured TNBC cells, LC-MS/MS (half-life)
Format: in vitro ADME, human
Conditions: human, TNBC cells PDC No. 3, PDC No. 3, FBI-1 (Table 4); read-out: Half-life values of olparib (t1/2) (converted)
Procedure: TNBC cells transfected with plasmids were used for the pharmacokinetic experiments to examine the amount of olaparib sustained in the cells. For the cell-based experiments, cells were treated with 1 μmol/L concentration of olaparib for 12 h[33]. Then, cells were harvested at indicated time-points. […] The sustaining rates of olaparib were calculated as (the amount of olaparib at each time)/(the amount of olaparib at 0-time) × 100%. […]
parameterMeasured: half-life at 1 μmol/L (h)
The reply should contain only the number, in h.

Can you look up the measured half-life at 1 μmol/L of "O=C(c1cc(Cc2n[nH]c(=O)c3ccccc23)ccc1F)N1CCN(C(=O)C2CC2)CC1" for me?
10.6

* * *

Assay: Olaparib sustained in cultured TNBC cells, LC-MS/MS (half-life)
Assay type: in vitro ADME, human
Details: human, TNBC cells PDC No. 9, PDC No. 9, FBI-1 (Table 3); read-out: Half life values of olaparib (t1/2) In cultured cells (converted)
parameterMeasured: half-life at 1 μmol/L (h)
The reply should contain only the number, in h.

Can you look up the measured half-life at 1 μmol/L of O=C(c1cc(Cc2n[nH]c(=O)c3ccccc23)ccc1F)N1CCN(C(=O)C2CC2)CC1 [olaparib] for me?
18.1

* * *

Experiment: Olaparib sustained in subcutaneous TNBC tumors after intratumoral injection, LC-MS/MS (half-life)
Assay type: in vivo, nude mice
Details: nude, mouse, subcutaneous tumor tissue, other: injected into the subcutaneous tumors (intratumoral), PDC No. 2, Control; read-out: Half life values of olaparib (t1/2) In subcutaneous tumors (converted)
parameterMeasured: half-life (h)
The reply should contain only the number, in h.

Can you look up the measured half-life of "O=C(c1cc(Cc2n[nH]c(=O)c3ccccc23)ccc1F)N1CCN(C(=O)C2CC2)CC1" for me?
30.1

* * *

Assay: Olaparib sustained in cultured TNBC cells, LC-MS/MS (half-life)
Format: in vitro ADME, human
Settings: human, MDA-MB-436 TNBC cells, MDA-MB-436, siFBI-1; read-out: half life values of olaparib (t1/2) (converted)
parameterMeasured: half-life at 1 μmol/L (h)
The reply should contain only the number, in h.

Can you look up the measured half-life at 1 μmol/L of O=C(c1cc(Cc2n[nH]c(=O)c3ccccc23)ccc1F)N1CCN(C(=O)C2CC2)CC1 [olaparib] for me?
47.3
